Field: Fold change (KD, to pVH/pVL). Provide a value for each of the binders that follow.
- Study target: T1, full length recombinant human 2N4R tau (human, UniProt P10636 1-758)
- T1 construct: bought from rPeptide; pHrodo Red maleimide-labelled where it stands in uptake assays; also called tau1-441; full length tau
- T1 sequence (P10636 other isoform, or with tags, fused parts or gaps limits assumed): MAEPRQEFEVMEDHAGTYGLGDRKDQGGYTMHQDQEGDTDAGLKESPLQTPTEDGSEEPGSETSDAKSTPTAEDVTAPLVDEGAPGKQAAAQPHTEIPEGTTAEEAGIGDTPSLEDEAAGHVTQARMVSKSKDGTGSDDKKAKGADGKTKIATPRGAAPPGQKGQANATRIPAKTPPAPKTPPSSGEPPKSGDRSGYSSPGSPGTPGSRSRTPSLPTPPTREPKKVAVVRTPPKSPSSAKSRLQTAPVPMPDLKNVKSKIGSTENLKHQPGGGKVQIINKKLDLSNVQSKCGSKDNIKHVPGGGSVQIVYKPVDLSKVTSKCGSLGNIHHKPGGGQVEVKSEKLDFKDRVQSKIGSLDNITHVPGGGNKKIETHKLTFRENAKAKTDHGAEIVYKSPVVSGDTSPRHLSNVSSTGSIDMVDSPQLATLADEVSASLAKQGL
- Assay name: SPR SCK, IgG on Protein A, tau in flow
One number for each entry.

The following binders have reported results that may help.
{"Binder": "#44_VH4VK4_H16-H04/pVL (antibody, V domains shown, also called Clone VH4_H16_H04; #44_VH4_H16-H04) VH: QVQLQESGPGLVKPSETLSLTCTVSGIDLSSYAMAWVRQAPGKGLEWIGAIDRAGNTFYASWVKGRFTISKDTSKTTVDLQMTSLTAEDTATYFCARDAGSFHPWGQGTLVTVSS VL: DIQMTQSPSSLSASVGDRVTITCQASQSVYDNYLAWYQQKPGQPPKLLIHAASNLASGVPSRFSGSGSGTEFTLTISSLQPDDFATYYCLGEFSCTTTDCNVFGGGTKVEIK", "Quantitative result": 7.88}
{"Binder": "#44_VH4VK4_H05/pVL (antibody, V domains shown, also called Clone VH4_H05; #44_VH4_H05) VH: QVQLQESGPGLVKPSETLSLTCTVSGIDLSSYAMAWVRQAPGKGLEWIGCIDRRGGTFYASWVKGRFTISKDTSKTTVDLQMTSLTAEDTATYFCARDAGHFDYWGQGTLVTVSS VL: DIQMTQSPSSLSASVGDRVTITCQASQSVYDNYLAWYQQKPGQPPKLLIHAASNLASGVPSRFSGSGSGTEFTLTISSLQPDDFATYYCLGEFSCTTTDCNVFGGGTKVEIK", "Quantitative result": 1.36}
{"Binder": "#44_VH4VK4_H20/pVL (antibody, V domains shown, also called Clone VH4_H20; #44_VH4_H20) VH: QVQLQESGPGLVKPSETLSLTCTVSGIDLSSYAMAWVRQAPGKGLEWIGAIDSRGSTFYASWVKGRFTISKDTSKTTVDLQMTSLTAEDTATYFCARDSGAFDPWGQGTLVTVSS VL: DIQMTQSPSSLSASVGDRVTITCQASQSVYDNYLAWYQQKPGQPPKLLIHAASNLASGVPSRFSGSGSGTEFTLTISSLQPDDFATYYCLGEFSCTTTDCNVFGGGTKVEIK", "Quantitative result": 0.75}
{"Binder": "#44_VH4_H07/L2 (antibody, V domains shown, also called Clone VH4_H07/L2) VH: QVQLQESGPGLVKPSETLSLTCTVSGIDLSSYAMAWVRQAPGKGLEWIGAIDAAGNTFYASWVKGRFTISKDTSKTTVDLQMTSLTAEDTATYFCARDSGAFDPWGQGTLVTVSS VL: DIQMTQSPSSLSASVGDRVTITCQASQSVYDNYLAWYQQKPGQPPKLLIHAASNLASGVPSRFSGSGSGTEFTLTISSLQPDDFATYYCLGEFSCQDTDCNVFGGGTKVEIKR", "Quantitative result": 0.26}
{"Binder": "#44_VH4VK4_H04/pVL (antibody, V domains shown, also called VH04/pVL; Clone VH4_H04) VH: QVQLQESGPGLVKPSETLSLTCTVSGIDLSSYAMAWVRQAPGKGLEWIGCIDRRGGTFYASWVKGRFTISKDTSKTTVDLQMTSLTAEDTATYFCARDAGSFHPWGQGTLVTVSS VL: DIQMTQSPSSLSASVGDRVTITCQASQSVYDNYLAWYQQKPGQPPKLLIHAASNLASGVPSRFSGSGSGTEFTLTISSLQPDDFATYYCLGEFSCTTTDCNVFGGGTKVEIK", "Quantitative result": 11.1}

As a next step, examine the binder that follows.
What value of Fold change (KD, to pVH/pVL) has been recorded for this entry: #44_VH4VK4_H06-H04/pVL (antibody, V domains shown, also called H06-04/pVL; Clone VH4_H06_H04) VH: QVQLQESGPGLVKPSETLSLTCTVSGIDLSSYAMAWVRQAPGKGLEWIGVIDAAGHTFYASWVKGRFTISKDTSKTTVDLQMTSLTAEDTATYFCARDAGSFHPWGQGTLVTVSS VL: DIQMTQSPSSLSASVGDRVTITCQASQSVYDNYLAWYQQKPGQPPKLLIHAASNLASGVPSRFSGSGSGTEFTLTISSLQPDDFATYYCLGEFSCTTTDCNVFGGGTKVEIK 9.11
